test-protocol: passive permeability, PAMPA, ADME assay (AID 1508612)
condition-notes: pH 7.4, 30.0 min, 50.0 µM
experimental-readout: Papp (×10⁻⁶ cm/s)
All answers are understood in ×10⁻⁶ cm/s, so give the number only.

Challenge: For the compound FC(F)(F)c1ccccc1-c1nc(NCc2ccc(-c3cccnc3)cc2)c2ccccc2n1 , what Papp is on record?
Response given: 786

Challenge: For the compound CCN(CCCO)CCCOc1ccc2c(Nc3cc(CC(=O)Nc4cccc(F)c4)[nH]n3)ncnc2c1 , what Papp is on record?
Response given: 2.5

Challenge: For the compound COc1ccccc1S(=O)(=O)Nc1cnccc1C(=O)Nc1nc(-c2ccccc2)cs1 , what Papp is on record?
Response given: 387

* * *

test-protocol: passive permeability, PAMPA, ADME assay (AID 1508612)
condition-notes: pH 7.4, 30.0 min, 50.0 µM
Could you please report measured Papp for the items listed next?
All answers are understood in ×10⁻⁶ cm/s, so give the number only.

Challenge: For the compound O=C(O)c1ccc(-c2c[nH]c3ncc(-c4ccccc4)cc23)cc1C1CCCC1 , what Papp is on record?
Response given: 400

Challenge: For the compound COc1ccnc(NC(=S)N2CCN(c3ccc(Cl)c(Cl)c3)CC2)c1 , what Papp is on record?
Response given: 601

Challenge: For the compound COc1ccc(Nc2ncc(C(=O)Nc3cccc(Cl)c3)c3ccccc23)cc1 , what Papp is on record?
Response given: 67.1

Challenge: For the compound COc1cccc(CNc2ccc(S(=O)(=O)Nc3nc4ccccc4[nH]3)cc2)c1O , what Papp is on record?
Response given: 30.8

Challenge: For the compound CNC(=O)C1=C(C)NC(Nc2nc3ccccc3o2)=NC1c1[nH]ncc1Cl (stereo unspecified) , what Papp is on record?
Response given: 17.6

Challenge: For the compound COc1cc(-c2cn(C)c(=O)c3cnccc23)c(OC)cc1CN(C)C , what Papp is on record?
Response given: 28.9

Challenge: For the compound Cc1cc(C)nc(NC(=S)N2CCN(c3cc(C(F)(F)F)nc4ccc(C(F)(F)F)cc34)CC2)c1 , what Papp is on record?
Response given: 636

Challenge: For the compound Cc1cc(-c2nnc3n2CCCCC3)c(C)n1-c1ccncc1 , what Papp is on record?
Response given: 24.5

Challenge: For the compound CCN1C(=O)c2ccccc2[S@](=O)c2ccc(C(=O)NCc3ccc(C#N)cc3)cc21 , what Papp is on record?
Response given: 872

Challenge: For the compound Cc1nc2ccc(C(=O)N3CCC4(CC3)CC(=O)c3c(cnn3C(C)C)C4)cc2[nH]1 , what Papp is on record?
Response given: 16.5

Challenge: For the compound Cc1ccc(S(=O)(=O)Nc2cnccc2C(=O)Nc2nc(-c3cnn(C)c3)cs2)cc1 , what Papp is on record?
Response given: 54.9

Challenge: For the compound O=C(c1cnccn1)N1CCC2(CCCN(C(c3ccccc3)c3ccccc3)C2)CC1 , what Papp is on record?
Response given: 3

Challenge: For the compound O=C1c2ccccc2-n2c1nc1ccccc1c2=O , what Papp is on record?
Response given: 715

* * *

test-protocol: passive permeability, PAMPA, ADME assay (AID 1508612)
condition-notes: pH 7.4, 30.0 min, 50.0 µM
// bucketize Papp: low class (below 300 ×10⁻⁶ cm/s), middle class (300 ×10⁻⁶ cm/s to below 600 ×10⁻⁶ cm/s), high class (600 ×10⁻⁶ cm/s or more)

Challenge: Bin? COC(=O)c1ccc(O)c2ncc(N3CCN(C)CC3)cc12
Response given: high class

Challenge: Bin? N#Cc1ccc(S(=O)(=O)Nc2cnccc2C(=O)Nc2nc(-c3ccccc3)cs2)cc1
Response given: low class

Challenge: Bin? CCOC(=O)c1ccc(N2C(=O)c3n[nH]c(-c4cccs4)c3C2c2ccc(OCC)cc2)cc1 (stereo not drawn)
Response given: high class

Challenge: Bin? CC(C)(C)n1nc(-c2ccc(Cl)cc2)c2c(N)ncnc21
Response given: high class

Challenge: Bin? COc1ccccc1Nc1ccnc(N2CCN(C(=O)c3ccc(F)cc3)CC2)n1
Response given: high class

Challenge: Bin? CS(=O)(=O)Nc1cccc(-c2nccc(-n3ccnc3)n2)c1
Response given: middle class

Challenge: Bin? CC(C)c1ccccc1-c1ncc(F)c(NCC2CCN(c3cccnc3)CC2)n1
Response given: high class

Challenge: Bin? Cn1ccc2c(C(=O)NCc3cccnc3)nc(-c3ccccc3C#N)cc21
Response given: high class

Challenge: Bin? Cc1noc(C)c1CN1CCNc2cc(Nc3ccccc3)ncc2C1
Response given: high class

Challenge: Bin? O=C(COC(=O)CCC(=O)c1cccs1)NCc1ccco1
Response given: low class

Challenge: Bin? O=C1Cc2cc(C(=O)c3ccco3)ccc2N1
Response given: low class

Challenge: Bin? Cc1ccc(-n2ncc3c(NCCCn4ccnc4)ncnc32)cc1Cl
Response given: high class

Challenge: Bin? COc1ccc(-c2ccc3c(N4CCOC[C@H]4C)nc(N4CCOC[C@H]4C)nc3n2)cc1CO
Response given: low class

Challenge: Bin? O=C(O)CCNc1cc(N2CCc3ccccc3CC2)nc(-c2cccnc2)n1
Response given: low class

Challenge: Bin? CCN(CC)S(=O)(=O)c1ccc(N2CCOCC2)c(NC(=O)c2[nH]c(C)c(C(C)=O)c2C)c1
Response given: high class

Challenge: Bin? COc1ccc(NS(=O)(=O)c2ccc(C)c(C(=O)Nc3ccc4oc(C)nc4c3)c2)cc1
Response given: high class

Challenge: Bin? N#Cc1cccc(-c2nccc(-n3ccnc3)n2)c1
Response given: middle class

Challenge: Bin? CC[C@@H](C)Nc1cc(C(=O)NC2CC3CCC(C2)N3c2ccc(C(=O)C3CC3)cn2)c(C)cc1C(N)=O (stereo partly drawn)
Response given: high class

Challenge: Bin? COc1ccc(C2c3c(ncn(CCN4CCOCC4)c3=N)Oc3ccc4ccccc4c32)cc1OC (stereo not drawn)
Response given: high class

Challenge: Bin? O=C(c1nc(-c2ccc(Cl)cc2Cl)c2cnccn12)N1CCOCC1
Response given: high class

Challenge: Bin? CCOc1ccc(CCNC(=O)c2cc3c(s2)CCC3)cc1OCC
Response given: high class

Challenge: Bin? NC(=O)c1cccc(-c2cc(Nc3ccc(OC(F)(F)F)cc3)ncn2)c1
Response given: middle class

Challenge: Bin? COc1ccc2[nH]cc(CCNC(=O)c3cnn(-c4ccc(C)cc4)c3C3CCN(C(=O)OC(C)(C)C)CC3)c2c1
Response given: low class

Challenge: Bin? O=C(Nc1nc(-c2ccccc2)cs1)c1ccncc1NS(=O)(=O)c1ccc(F)cc1
Response given: high class

Challenge: Bin? CC(C)(C)OC(=O)N1CCN(c2ccc(NCc3ccc(-c4ccc(C#N)cc4)o3)cc2)CC1
Response given: middle class

Challenge: Bin? CC(=O)Nc1cccc(-c2csc(Nc3cc(C)ccn3)n2)c1
Response given: high class

Challenge: Bin? COc1ccc(NC(=O)c2c(C)cccc2C)cc1S(=O)(=O)Nc1ccc(Br)cc1
Response given: middle class

Challenge: Bin? O=C(Nc1ccccc1C(=O)Nc1ccccc1C(=O)NCc1ccco1)c1ccco1
Response given: high class

Challenge: Bin? Cc1cnc(-c2ccccc2C(F)F)nc1NCc1ccc(-c2cccnc2)cc1
Response given: high class

Challenge: Bin? COc1ccc(C(=O)NC2CCCc3c2[nH]c2c(Cl)cccc32)cc1OC (stereo not drawn)
Response given: low class

Challenge: Bin? Cc1ccc2c(c1)N(S(=O)(=O)c1cc(-c3onc(C)c3C)ccc1C)CCO2
Response given: high class

Challenge: Bin? Cc1ccc(C2=NN=C(NC(=O)CSc3nncn3C)SC2)cc1
Response given: low class

Challenge: Bin? N=c1c2c(n(Cc3ccccc3)c3c1CCC3)CCC2
Response given: low class

Challenge: Bin? Cc1cc(NS(=O)(=O)c2ccc(NC(=O)Cc3ccc(Cl)c(Cl)c3)cc2)n(C)n1
Response given: low class

Challenge: Bin? Cc1ccc(-n2c(C)cc(-c3nnc4n3CCCCC4)c2C)cc1
Response given: high class

Challenge: Bin? Oc1cccc2nc3ccccc3nc12
Response given: middle class

Challenge: Bin? COc1ccc(NC2CCCN(C(=O)CCc3ccccc3F)C2)cc1 (stereo not drawn)
Response given: high class

Challenge: Bin? CCOc1cc(CNc2ccc(O)cc2)ccc1OCc1ccc(Cl)cc1
Response given: low class

Challenge: Bin? COc1ccc(C2=Nn3c(nnc3-c3ccncc3)SC2)cc1
Response given: low class

* * *

test-protocol: passive permeability, PAMPA, ADME assay (AID 1508612)
condition-notes: pH 7.4, 30.0 min, 50.0 µM
// bucketize Papp: range 1: < 200 ×10⁻⁶ cm/s; range 2: ≥ 200 ×10⁻⁶ cm/s and < 500 ×10⁻⁶ cm/s; range 3: ≥ 500 ×10⁻⁶ cm/s

Challenge: Bin? Cc1noc(C)c1C(=O)N1CCC2(CCCN(Cc3ccccc3)C2)CC1
Response given: range 2

Challenge: Bin? Cc1ccc(S(=O)(=O)Nc2cc3c(cc2C(=O)Nc2nc(-c4ccccc4)cs2)OCO3)cc1
Response given: range 1

Challenge: Bin? CC(=O)Nc1ccc(NC(=O)C(NS(=O)(=O)c2ccc(Br)s2)c2ccccc2)cc1 (configuration not stated)
Response given: range 2

Challenge: Bin? COc1ccc(-n2nc(C3CCCN(CC4CCCCC4)C3)[nH]c2=O)cc1 (configuration not stated)
Response given: range 3

Challenge: Bin? Cn1ccc2c(C(=O)NCC3CCC(=O)N3)nc(-c3ccccc3C#N)cc21 (configuration not stated)
Response given: range 2

Challenge: Bin? O=C(C=Cc1cccnc1)NCCCCC1CCN(C(=O)c2ccccc2)CC1
Response given: range 1

Challenge: Bin? CC(C)COc1ccc(-c2csc(N3CCC(C(N)=O)CC3)n2)cc1
Response given: range 1

Challenge: Bin? COc1ccc(-c2ccc3ncc(Nc4ccncc4)n3n2)cc1OC
Response given: range 3

Challenge: Bin? CCN(CC)S(=O)(=O)c1ccc(N2CCCC2)c(NS(=O)(=O)c2ccccc2)c1
Response given: range 2

Challenge: Bin? CC(C)c1ccccc1-c1ncc(F)c(NC2(c3ccc(-c4cccnc4)cc3)CC2)n1
Response given: range 3

Challenge: Bin? COc1cccc(CNCc2cccn2-c2nnc(N3CCN(c4ccccc4)CC3)s2)c1
Response given: range 3

Challenge: Bin? OCCn1cc(-c2cnc3nnn(Cc4ccc5ncccc5c4)c3n2)cn1
Response given: range 1

Challenge: Bin? Cc1ccc(CSCc2ccc(C(=O)NC3CC3)o2)cc1
Response given: range 3

Challenge: Bin? OCc1ccc(-c2nn(Cc3ccccc3)c3ccccc23)o1
Response given: range 3

Challenge: Bin? O=C1Nc2ccccc2/C1=C\c1ccc([N+](=O)[O-])cc1
Response given: range 2

Challenge: Bin? Cc1cnc(-c2ccccc2C(C)C)nc1NCC1CN(c2cccnc2)C1
Response given: range 3

Challenge: Bin? COCCNC(=O)c1ccc(Cn2c(=S)[nH]c3cc4c(cc3c2=O)OCO4)cc1
Response given: range 1

Challenge: Bin? O=C(NC1CCCc2c1cnn2-c1ccc(O)cc1)c1ccccn1 (configuration not stated)
Response given: range 3

Challenge: Bin? Cn1c(CN2CCCC2)nc2cc(NC(=O)COc3ccc(Cl)cc3)ccc21
Response given: range 3

Challenge: Bin? C[C@H]1CN(C(=O)Nc2ccc(F)cc2)C[C@@H]1c1nc(-c2ccccc2)no1
Response given: range 3
